Taken from patent US20240190880A1.

Biological target: ER (Homo sapiens)
Construct: host or cells: T47D and MCF7 human breast cancer cells
Experiment: ER degradation activity, in-cell western blot analysis in T47D cells
Format: cell-based
Details: 16 hours, Table A does not say which cell line (T47D or MCF7), read-out: Potency (DC50)
Procedure: ER degradation activity was evaluated in the human breast cancer cell line T47D and MCF7 purchased from the American Type Culture Collection (ATCC), Manassas, VA, and maintained and cultured in Dulbecco's Modified Eagle's medium (DMEM) containing 10% fetal bovine serum, 1 unit/ml of penicillin and 1 μg/ml of streptomycin. […]
DC50 by entry:

Some solved cases for reference:
stdin: Given the entry C[C@H]1CC2(CCN(CC(=O)N3Cc4cc5c(cc4C3)C(=O)N(C3CCC(=O)NC3=O)C5=O)CC2)CN1c1ccc([C@@H]2c3ccc(O)cc3CC[C@@H]2c2ccccc2)cc1 (mixture of isomers) [E 144] , report its measured DC50.
stdout: > 100 nM

stdin: Thanks! And C[C@@H]1Cc2cc(O)ccc2[C@@H](c2c(F)cc(N3CCN(C(=O)[C@H]4CC[C@H](N5Cc6cc7c(cc6C5)C(=O)N(C5CCC(=O)NC5=O)C7=O)CC4)CC3)cc2F)N1CC(F)F (mixture of isomers) [E 353] ?
stdout: > 100 nM

stdin: Now give it for O=C1CCC(N2C(=O)c3cc4c(cc3C2=O)CN(CC(=O)N2CC3(C2)CN(c2ccc([C@@H]5c6ccc(O)cc6CC[C@@H]5c5ccc(F)cc5)cc2)C3)C4)C(=O)N1 (mixture of isomers) [E 18] too.
stdout: 10 to 100 nM

stdin: Next: O=C1CCC(N2Cc3cc4c(cc3C2=O)CN(C2CCN(CC3CN(c5ccc([C@H]6c7ccc(O)cc7CC[C@H]6c6ccc(F)cc6)cc5)C3)CC2)C4)C(=O)N1 (some centres unmarked) [E 279]
stdout: 10 to 100 nM

Kindly review the next compound as well.
stdin: Value lookup for DC50; key = C[C@@H]1Cc2c([nH]c3ccccc23)[C@@H](c2c(F)cc(N3CCC4(CN(C(=O)CN5Cc6cc7c(cc6C5)C(=O)N(C5CCC(=O)NC5=O)C7)C4)C3)cc2F)N1CC(F)F (some centres unmarked) [E 72]
stdout: < 10 nM

----------
Biological target: ER (Homo sapiens)
Construct: host or cells: T47D and MCF7 human breast cancer cells
Assay: ER degradation activity, in-cell western blot analysis in T47D cells
Assay type: cell-based
Conditions: 16 hours, Table A does not say which cell line (T47D or MCF7), read-out: Potency (DC50)
Recorded measurements of DC50, one per entry

stdin: Field request: DC50 | item: C[C@@H]1Cc2c([nH]c3ccccc23)[C@@H](c2ccc(N3CCC4(CCN(C(=O)CN5Cc6cc7c(cc6C5)C(=O)N(C5CCC(=O)NC5=O)C7=O)CC4)CC3)cc2F)N1CC(F)F (stereo partly drawn) [E 293]
stdout: 10 to 100 nM

stdin: And then O=C1CCC(N2C(=O)c3cc4c(cc3C2=O)CN(C(=O)CN2CC3(CCN(c5ccc([C@@H]6c7ccc(O)cc7CC[C@@H]6c6ccccc6)cc5)CC3)C2)CCC4)C(=O)N1 (mixture of isomers) [E 168] , what is it?
stdout: > 100 nM

Now consider a different compound.
stdin: Report DC50 for C[C@@H]1Cc2cc(O)ccc2[C@@H](c2c(F)cc(N3CCC4(CCN(C(=O)CN5Cc6cc7c(cc6C5)C(=O)N(C5CCC(=O)NC5=O)C7=O)CC4)CC3)cc2F)N1CC(F)(F)F (stereo partly drawn) [E 225] please.
stdout: > 100 nM

----------
Measured DC50 by item
Molecular target: ER (Homo sapiens, UniProt P03372)
Construct: host or cells: T47D and MCF7 human breast cancer cells
Assay: ER degradation activity, in-cell western blot analysis in T47D cells
Type: cell-based
Conditions: 16 hours, Table A does not say which cell line (T47D or MCF7), read-out: Potency (DC50)

Some solved entries appear below for comparison.
stdin: Query: DC50; subject: O=C1CCC(N2C(=O)c3cc4c(cc3C2=O)CN(CC2(F)CN(C(=O)C3CCN(c5ccc([C@@H]6c7ccc(O)cc7CC[C@@H]6c6ccccc6)cc5)CC3)C2)C4)C(=O)N1 (some centres unmarked)
stdout: > 100 nM

stdin: Field entry: O=C1CCC(N2C(=O)c3cc4c(cc3C2=O)CN(CC(=O)N2CCC3(CC2)CCN(c2ccc([C@@H]5c6ccc(O)cc6CC[C@@H]5C5CCC(F)(F)CC5)cc2)CC3)C4)C(=O)N1 (mixture of isomers)
stdout: 10 to 100 nM

stdin: Entry C[C@@H]1Cc2c([nH]c3ccccc23)[C@@H](c2c(F)cc(N3CCC(N4CCN(CC(=O)N5Cc6cc7c(cc6C5)C(=O)N(C5CCC(=O)NC5=O)C7)CC4)CC3)cc2F)N1CC(F)F (some centres unmarked) please
stdout: < 10 nM

---
stdin: What DC50 value was documented for this molecule, C[C@@H]1Cc2c([nH]c3ccccc23)[C@@H](c2c(F)cc(N3CC4(CCN(C(=O)CN5Cc6cc7c(cc6C5)C(=O)N(C5CCC(=O)NC5=O)C7=O)C4)C3)cc2F)N1CC(F)F (some centres unmarked) ?
stdout: < 10 nM

stdin: Further, for O=C1CCC(N2C(=O)c3cc4c(cc3C2=O)CN(C(=O)CN2CCC3(CC2)CN(c2ccc([C@@H]5c6ccc(O)cc6CC[C@@H]5c5ccccc5)cc2)C3)C4)C(=O)N1 (mixture of isomers) ?
stdout: > 100 nM

----------
Here, each record is paired with measured DC50 data.
Target: ER (Homo sapiens, UniProt P03372)
Construct: host or cells: T47D and MCF7 human breast cancer cells
Sequence (P03372 1-595): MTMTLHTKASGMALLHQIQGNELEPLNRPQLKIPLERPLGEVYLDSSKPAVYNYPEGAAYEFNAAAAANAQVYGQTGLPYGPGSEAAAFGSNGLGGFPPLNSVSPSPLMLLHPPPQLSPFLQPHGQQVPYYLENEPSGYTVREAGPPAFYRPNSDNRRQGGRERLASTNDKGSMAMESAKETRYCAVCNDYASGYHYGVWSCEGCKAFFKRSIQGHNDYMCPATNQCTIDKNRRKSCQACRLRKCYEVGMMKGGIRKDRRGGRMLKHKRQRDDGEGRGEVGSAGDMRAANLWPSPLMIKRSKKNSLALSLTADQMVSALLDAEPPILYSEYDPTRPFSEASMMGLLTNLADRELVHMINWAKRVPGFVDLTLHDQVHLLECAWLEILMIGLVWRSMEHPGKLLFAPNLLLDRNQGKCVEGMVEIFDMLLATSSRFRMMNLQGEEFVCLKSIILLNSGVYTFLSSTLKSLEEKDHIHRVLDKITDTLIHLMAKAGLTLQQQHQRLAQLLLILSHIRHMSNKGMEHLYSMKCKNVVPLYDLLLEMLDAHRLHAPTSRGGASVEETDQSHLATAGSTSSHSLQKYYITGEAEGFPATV
Assay: ER degradation activity, in-cell western blot analysis in T47D cells
Type: cell-based
Conditions: 16 hours, Table A does not say which cell line (T47D or MCF7), read-out: Potency (DC50)

Solved cases (4 shown):
stdin: Look up DC50: O=C1CCC(N2Cc3cc4c(cc3C2=O)CN(C2CCN(CC3CCN(c5ccc([C@@H]6c7ccc(O)cc7CC[C@@H]6c6ccccc6)cc5)CC3)CC2)C4)C(=O)N1 (mixture of isomers)
stdout: < 10 nM

stdin: Would you mind doing C[C@@H]1Cc2cc(O)ccc2[C@@H](c2c(F)cc(N3CCC4(CN(CC(=O)N5Cc6cc7c(cc6C5)C(=O)N(C5CCC(=O)NC5=O)C7)C4)C3)cc2F)N1CC(F)F (stereo partly drawn) as well?
stdout: 10 to 100 nM

stdin: Same question for C[C@@H]1Cc2cc(O)ccc2[C@@H](c2c(F)cc(N3CCC(CN4CC(N5Cc6cc7c(cc6C5)C(=O)N(C5CCC(=O)NC5=O)C7=O)C4)CC3)cc2F)N1CC(F)F (stereo partly drawn) please.
stdout: > 100 nM

stdin: What do we get for C[C@@H]1Cc2c([nH]c3ccccc23)[C@@H](c2c(F)cc(N3CC(C(=O)N4CC(CN5Cc6cc7c(cc6C5)C(=O)N(C5CCC(=O)NC5=O)C7=O)C4)C3)cc2F)N1CC(F)F (stereo partly drawn) ?
stdout: 10 to 100 nM

***
stdin: Give the measured DC50 of O=C1CCC(N2C(=O)c3cc4c(cc3C2=O)CN(CC(=O)N2CC3(CCN(c5ccc([C@@H]6c7ccc(O)cc7CC[C@@H]6c6ccccc6)cc5)CC3)C2)CCC4)C(=O)N1 (stereo partly drawn) .
stdout: > 100 nM

stdin: Likewise for C[C@@H]1Cc2c([nH]c3ccccc23)[C@@H](c2c(F)cc(N3CC4(CC(C(=O)N5CCC(N6Cc7cc8c(cc7C6)C(=O)N(C6CCC(=O)NC6=O)C8=O)CC5)C4)C3)cc2F)N1CC(F)F (stereo partly drawn) ?
stdout: < 10 nM

stdin: Note, next up: C[C@@H]1Cc2c([nH]c3ccccc23)[C@@H](c2c(F)cc(N3CC(C(=O)N4CCC(N5Cc6cc7c(cc6C5)C(=O)N(C5CCC(=O)NC5=O)C7=O)CC4)C3)cc2F)N1CC(F)F (stereo partly drawn) [E 236]
stdout: > 100 nM

stdin: Repeat for the following compound: C[C@@H]1Cc2c([nH]c3ccccc23)[C@@H](c2c(F)cc(N3CC4(CN(C(=O)CN5Cc6cc7c(cc6C5)C(=O)N(C5CCC(=O)NC5=O)C7=O)C4)C3)cc2F)N1CC(F)F (stereo partly drawn)
stdout: < 10 nM

stdin: Next: C[C@@H]1Cc2c([nH]c3ccccc23)[C@@H](c2cnc(N3CCC(CN4CCC(N5Cc6cc7c(cc6C5)C(=O)N(C5CCC(=O)NC5=O)C7=O)CC4)CC3)nc2)N1CC(F)F (stereo partly drawn)
stdout: 10 to 100 nM
